STUDY TARGET: human IDO1 (Homo sapiens, UniProt P14902)
Sequence (P14902 whole entry): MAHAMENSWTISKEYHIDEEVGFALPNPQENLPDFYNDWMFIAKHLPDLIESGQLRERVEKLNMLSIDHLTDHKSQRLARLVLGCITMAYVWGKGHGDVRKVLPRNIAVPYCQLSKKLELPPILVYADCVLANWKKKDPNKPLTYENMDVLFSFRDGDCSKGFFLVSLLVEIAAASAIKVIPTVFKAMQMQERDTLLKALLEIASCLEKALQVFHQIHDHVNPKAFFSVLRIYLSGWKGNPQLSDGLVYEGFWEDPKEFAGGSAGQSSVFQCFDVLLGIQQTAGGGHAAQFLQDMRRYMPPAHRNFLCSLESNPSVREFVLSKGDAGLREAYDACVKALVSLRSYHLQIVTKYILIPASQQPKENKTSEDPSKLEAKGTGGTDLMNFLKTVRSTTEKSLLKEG
PROTOCOL DETAILS: Assessment of human IDO-1 inhibitory activity in Hela cells (Interferon-gamma stimulated HeLa cells, Ehrlich reagent, absorbance 490 nm)
Type: cell-based
Parameters: endogenous in cells; host or cells: HeLa cells stimulated with interferon-gamma
CONDITION NOTES: Hela Human IDO-1 cellular assay
Experimental: Exemplary compounds were tested for inhibition of IDO activity. Assessment of Human IDO-1 Inhibitory Activity in Hela Cells HeLa cells were seeded at 20,000 cells per 30 μL per well with RPMI/phenol red free media containing 10% FBS in a 384-well tissue culture plate (black with clear bottoms). […] Compound treatment was stopped by adding 5 μl trichloroacetic acid to a final concentration of 3%. […] Absorbance at 490 nm was measured on Envision plate reader. […]
MEASUREMENT KIND: IC50

Q. Annotate the compound CCC(CC(=O)O)c1ccc(N2CCN(C(=O)OC(C)(C)C)CC2)c(Nc2ccc(C#N)cc2)c1 (single isomer, unassigned) [Example 674 Enantiomer 1] with its measured IC50.
A. < 50 nM

Q. Annotate the compound CCC(CC(=O)O)c1ccc(N(CC(F)F)C2CCOCC2)c(Nc2ccc(Cl)cc2)c1 (single isomer, unassigned) [Example 318 Enantiomer 1] with its measured IC50.
A. < 5 nM

Q. Annotate the compound CCCN(c1ccc([C@H](COC)CC(=O)O)cc1NC(=O)Nc1ccc(C#N)cc1)C1CCOCC1 (single isomer, unassigned) [Example 577] with its measured IC50.
A. > 50 nM

Others:
Q. Annotate the compound CCC(CC(=O)O)c1ccc(N(C)C2CCOCC2)c(Nc2ccc(C#N)cc2)c1 (single isomer, unassigned) [Example 866] with its measured IC50.
A. < 50 nM

Q. Annotate the compound CCN(c1ccc([C@H](CC(=O)O)C(F)(F)F)cc1NC(=O)Nc1ccc(Cl)cc1F)C1CCOCC1 (single isomer, unassigned) [Example 1267] with its measured IC50.
A. < 5 nM

Recorded values, source patent US9790169B2.
